Molecular target: PPARG/RXRA LBD heterodimer (Homo sapiens, UniProt P37231)
Construct: His-TEV-Q203-Y477; Uniprot ID P37231-2; made in house; host or cells: E. coli
Test: PPARγ-NCOR1 recruitment assay (TR-FRET, biotinylated NCOR1 ID2 peptide)
Format: biochemical
Conditions: 80 nM Rosiglitazone, 3 hours, read-out: PPARG-NCOR recruitment assay EC50
Sequence (O75376 2251-2273 partner, one chain of several): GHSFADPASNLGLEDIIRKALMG
pEC50: −log10 of the molar value.
measured.endpoint: pEC50

Look up pEC50 for the entries below, preserving their order.
1. COc1cc(F)c2c(=O)cc(-c3cc(C#N)ccc3Cl)[nH]c2c1 [Example 22]
2. CNC(=O)c1cccc(-c2c(F)cc3[nH]c(-c4cc(C#N)ccc4Cl)cc(=O)c3c2F)c1 [Example 78]
3. CN(C)C(=O)c1cc(-c2c(F)cc3[nH]c(-c4cc(C#N)ccc4Cl)cc(=O)c3c2F)c(F)cc1F [Example 87]
4. N#Cc1ccc(Cl)c(-c2cc(=O)c3c(F)c(F)c(F)cc3[nH]2)c1 [Example 17]
5. N#Cc1ccc(Cl)c(-c2cc(=O)c3c(F)c(C(F)(F)F)c(F)cc3[nH]2)c1 [Example 32]
6. N#Cc1ccc(Cl)c(-c2cc(=O)c3c(F)c(-c4ccncc4)c(F)cc3[nH]2)c1 [Example 23]

Reply:
1: 6.00 to 7.00; 2: 6.00 to 7.00; 3: 6.00 to 7.00; 4: 5.00 to 6.00; 5: 6.00 to 7.00; 6: 6.00 to 7.00

Look up pEC50 for the entries below, preserving their order.
1. CNC(=O)c1c(F)cc2[nH]c(-c3cc(C#N)ccc3Cl)cc(=O)c2c1F [Example 26]
2. N#Cc1ccc(Cl)c(-c2cc(=O)c3c(F)c(-c4ccnc(C(F)(F)F)c4)c(F)cc3[nH]2)c1 [Example 53]
3. COc1cc(F)cc2[nH]c(-c3cc(C#N)ccc3Cl)cc(=O)c12 [Example 21]

Reply:
1: < 5.00; 2: 6.00 to 7.00; 3: 5.00 to 6.00

----------
For each record, write down the corresponding EC50.
Biological target: PPARG/RXRA LBD heterodimer (Homo sapiens)
Construct: His-TEV-Q203-Y477; Uniprot ID P37231-2; made in house; host or cells: E. coli
Sequence (P37231 203-477 isoform P37231-2): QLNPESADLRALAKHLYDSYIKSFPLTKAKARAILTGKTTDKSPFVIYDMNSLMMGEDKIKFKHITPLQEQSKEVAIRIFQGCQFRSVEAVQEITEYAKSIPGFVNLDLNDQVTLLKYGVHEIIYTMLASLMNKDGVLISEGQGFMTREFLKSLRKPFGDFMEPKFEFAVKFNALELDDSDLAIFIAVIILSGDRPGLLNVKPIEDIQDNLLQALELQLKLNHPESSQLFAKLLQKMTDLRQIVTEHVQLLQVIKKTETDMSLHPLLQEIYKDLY
Sequence (P19793 228-462 partner limits assumed): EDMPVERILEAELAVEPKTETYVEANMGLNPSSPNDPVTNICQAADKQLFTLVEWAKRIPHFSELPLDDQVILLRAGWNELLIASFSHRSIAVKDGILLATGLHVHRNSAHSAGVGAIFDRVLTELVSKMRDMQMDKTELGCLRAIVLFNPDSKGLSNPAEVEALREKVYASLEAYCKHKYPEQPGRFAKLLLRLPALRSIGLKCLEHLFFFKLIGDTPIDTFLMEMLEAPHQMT
Assay: PPARγ-MED1 blockade assay (TR-FRET, biotinylated MED1 LxxLL peptide)
Assay type: biochemical
Details: WT PPARG LBD/WT RXRA LBD, 80 nM Rosiglitazone, 3 hours

Here's what some known entries look like.
N#Cc1ccc(Cl)c(-c2cc(=O)c3cc(F)cc(F)c3[nH]2)c1	> 10000 nM
N#Cc1ccc(Cl)c(-c2cc(=O)c3c(F)cc(Cl)cc3[nH]2)c1	100 to 1000 nM
CN(C)C(=O)c1cc(-c2c(F)cc3[nH]c(-c4cc(C#N)ccc4Cl)cc(=O)c3c2F)ccc1C(F)(F)F	100 to 1000 nM

Look up EC50 for the entries below, preserving their order.
1. CN(C)C(=O)C1CCN(c2c(F)cc3[nH]c(-c4cc(C#N)ccc4Cl)cc(=O)c3c2F)CC1
2. N#Cc1ccc(Cl)c(-c2cc(=O)c3c(F)c(-c4ccc(C(F)F)cn4)c(F)cc3[nH]2)c1

Reply:
1000 to 10000 nM
100 to 1000 nM
